What IC50 was measured for each of the following?
# Target Entity: Kras and SOS1 (biotin-tagged human Kras loaded with GDP, His-tagged human SOS1) (Homo sapiens, UniProt P01116, G12D)
# Construct: made in house; host or cells: E. coli (stated for Kras only)
# Sequence (P01116 1-188 isoform P01116-2 G12D): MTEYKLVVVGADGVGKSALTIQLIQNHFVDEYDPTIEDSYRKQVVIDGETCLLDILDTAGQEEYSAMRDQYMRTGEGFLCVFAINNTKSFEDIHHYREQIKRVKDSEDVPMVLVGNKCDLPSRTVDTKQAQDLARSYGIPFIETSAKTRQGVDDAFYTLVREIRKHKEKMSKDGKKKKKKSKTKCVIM
# Test Details: Protein-protein interaction inhibition between Kras and SOS1 (KrasGl2D-SOS PPI) using AlphaScreen
# Type: binding
# Condition Details: AlphaScreen; biotin-tagged human Kras loaded with GDP, His-tagged human SOS1; read-out: KRAS G12D-SOS PPI IC50
Starred links: 1 amine or outer side, 2 acyl side, 3 side chain; linkers in the order of their positions; H or OH if unused. Positions of bridges follow the written chain, without caps; N, C: chain ends. Non-standard residues stand in square brackets, D forms with d. Residues, ends and D or L forms follow the SMILES beside them. *: point of attachment. hPhe(3-Cl-4-CF3) = N[C@@H](CCc1ccc(C(F)(F)F)c(Cl)c1)C(=O)O; hPhe(3-F,4-CF3) = N[C@@H](CCc1ccc(C(F)(F)F)c(F)c1)C(=O)O; X38 = CN([C@@H](Cc1cccc(OC(F)(F)F)c1)C(=O)[*:2])[*:1]; NMePhe(4-Cl) = CN[C@@H](Cc1ccc(Cl)cc1)C(=O)O; NMeGly(cPent) = CN[C@H](C(=O)O)C1CCCC1; Phe(3-I) = N[C@@H](Cc1cccc(I)c1)C(=O)O; NMe4Pal = CN[C@@H](Cc1ccncc1)C(=O)O; NMeCha = CN[C@@H](CC1CCCCC1)C(=O)O; NMeChg = CN[C@H](C(=O)O)C1CCCCC1; NMeF = CN[C@@H](Cc1ccccc1)C(=O)O; NMeD = CN[C@@H](CC(=O)O)C(=O)O; NMeL = CN[C@@H](CC(C)C)C(=O)O; NMeS = CN[C@@H](CO)C(=O)O; NMeA = CN[C@@H](C)C(=O)O; Nle = CCCC[C@H](N)C(=O)O; Piperidide = C1CCN(*)CC1; Pyrrolidide = C1CCN(*)C1; Ac5c = NC1(C(=O)O)CCCC1; Aze = O=C(O)[C@@H]1CCN1; Cyclopropyl = C1CC1*; Sar = CNCC(=O)O
Give a bare numeral; the unit nM is implied.

// CC[C@H](C)[C@@H]1NC(=O)[C@H](C)N(C)C(=O)C[C@@H](C(=O)N2CCCCC2)NC(=O)[C@H](CC(C)C)N(C)C(=O)[C@H](Cc2ccccc2)N(C)C(=O)[C@H](CC(C)C)NC(=O)[C@H](CCc2ccc(C(F)(F)F)c(Cl)c2)NC(=O)CN(C)C(=O)[C@H](Cc2ccc(Cl)cc2)N(C)C(=O)CN(C)C(=O)CN(C)C1=O [Compound 861] ([NMeA]I[Sar][Sar][NMePhe(4-Cl)][Sar][hPhe(3-Cl-4-CF3)]L[NMeF][NMeL]D-Piperidide; lactam N-11) : IC50 value = 4.5

// CC[C@H](C)[C@@H]1NC(=O)[C@H](CC(C)C)N(C)C(=O)C[C@@H](C(=O)N2CCCC2)N(C)C(=O)[C@H](C2CCCCC2)N(C)C(=O)C2(CCCC2)NC(=O)[C@@H]2CCCN2C(=O)[C@H](CCc2ccc(C(F)(F)F)c(F)c2)NC(=O)CN(C)C(=O)[C@H](CC2CCCCC2)N(C)C(=O)CN(C)C(=O)CN(C)C1=O [Compound 1870] ([NMeL]I[Sar][Sar][NMeCha][Sar][hPhe(3-F,4-CF3)]P[Ac5c][NMeChg][NMeD]-Pyrrolidide; lactam N-11) : IC50 value = 0.74

// CC[C@H](C)[C@@H]1NC(=O)[C@H](COC2CC2)N(C)C(=O)C[C@@H](C(=O)N2CCCCC2)N(C)C(=O)[C@H](C2CCCCC2)N(C)C(=O)C2(CCCC2)NC(=O)[C@@H]2CCCN2C(=O)[C@H](CCc2ccc(C(F)(F)F)c(Cl)c2)NC(=O)CN(C)C(=O)[C@H](CC2CCCCC2)N(C)C(=O)CN(C)C(=O)CN(C)C1=O [Compound 1786] ([NMeS](Cyclopropyl)I[Sar][Sar][NMeCha][Sar][hPhe(3-Cl-4-CF3)]P[Ac5c][NMeChg][NMeD]-Piperidide; lactam N-11) : IC50 value = 0.72

// CCCC[C@@H]1NC(=O)[C@H](Cc2cccc(I)c2)NC(=O)CN(C)C(=O)[C@H](Cc2ccc(Cl)cc2)N(C)C(=O)CN(C)C(=O)CN(C)C(=O)[C@H]([C@@H](C)CC)NC(=O)[C@H](CC(C)C)N(C)C(=O)C[C@@H](C(=O)N2CCCCC2)N(C)C(=O)[C@H](CC(C)C)NC(=O)[C@H](Cc2cccc(OC(F)(F)F)c2)N(C)C1=O [Compound 143] ([NMeL]I[Sar][Sar][NMePhe(4-Cl)][Sar][Phe(3-I)][Nle][X38]L[NMeD]-Piperidide; lactam N-11) : IC50 value = 68

// CC[C@H](C)[C@@H]1NC(=O)[C@H](CC(C)C)N(C)C(=O)C[C@@H](C(=O)N(C)C)N(C)C(=O)[C@H](C2CCCC2)N(C)C(=O)[C@H](C(C)C)NC(=O)[C@H](Cc2ccncc2)N(C)C(=O)[C@H](CCc2ccc(C(F)(F)F)c(Cl)c2)NC(=O)CN(C)C(=O)[C@H](CC2CCCCC2)N(C)C(=O)[C@@H]2CCN2C(=O)[C@H](C)N(C)C1=O [Compound 1982] ([NMeL]I[NMeA][Aze][NMeCha][Sar][hPhe(3-Cl-4-CF3)][NMe4Pal]V[NMeGly(cPent)][NMeD]-NMe2; lactam N-11) : IC50 value = 47

* * *

# Target Entity: Kras and SOS1 (biotin-tagged human Kras loaded with GDP, His-tagged human SOS1) (Homo sapiens, UniProt P01116, G12D)
# Construct: made in house; host or cells: E. coli (stated for Kras only)
# Test Details: Protein-protein interaction inhibition between Kras and SOS1 (KrasGl2D-SOS PPI) using AlphaScreen
# Assay type: binding
# Condition Details: AlphaScreen; biotin-tagged human Kras loaded with GDP, His-tagged human SOS1; read-out: KRAS G12D-SOS PPI IC50
Positions of bridges follow the written chain, without caps; N, C: chain ends. Non-standard residues stand in square brackets, D forms with d. Residues, ends and D or L forms follow the SMILES beside them. *: point of attachment. hPhe(3-Cl-4-CF3) = N[C@@H](CCc1ccc(C(F)(F)F)c(Cl)c1)C(=O)O; NMePhe(4-Cl) = CN[C@@H](Cc1ccc(Cl)cc1)C(=O)O; Phe(3-CN) = N#Cc1cccc(C[C@H](N)C(=O)O)c1; NMeCha = CN[C@@H](CC1CCCCC1)C(=O)O; NMeChg = CN[C@H](C(=O)O)C1CCCCC1; NMeF = CN[C@@H](Cc1ccccc1)C(=O)O; Gly(cPr) = N[C@H](C(=O)O)C1CC1; NMeD = CN[C@@H](CC(=O)O)C(=O)O; NMeL = CN[C@@H](CC(C)C)C(=O)O; NMeA = CN[C@@H](C)C(=O)O; Piperidide = C1CCN(*)CC1; Ac5c = NC1(C(=O)O)CCCC1; Sar = CNCC(=O)O
What pIC50 was measured for each of the following?
Scale: pIC50 equals -log10([C]), with [C] in mol/L.

// CC[C@H](C)[C@@H]1NC(=O)[C@H](C)N(C)C(=O)C[C@@H](C(=O)N2CCCCC2)NC(=O)[C@H](CC(C)C)N(C)C(=O)[C@H](Cc2ccccc2)N(C)C(=O)[C@H](CC(C)C)NC(=O)[C@H](Cc2cccc(C#N)c2)NC(=O)CN(C)C(=O)[C@H](Cc2ccc(Cl)cc2)N(C)C(=O)CN(C)C(=O)CN(C)C1=O [Compound 252] ([NMeA]I[Sar][Sar][NMePhe(4-Cl)][Sar][Phe(3-CN)]L[NMeF][NMeL]D-Piperidide; lactam N-11) : pIC50 value = 7.26

// CC(C)C[C@H]1C(=O)N[C@@H](C2CC2)C(=O)N(C)CC(=O)N(C)CC(=O)N(C)[C@@H](CC2CCCCC2)C(=O)N(C)CC(=O)N[C@@H](CCc2ccc(C(F)(F)F)c(Cl)c2)C(=O)N2CCC[C@H]2C(=O)NC2(CCCC2)C(=O)N(C)[C@@H](C2CCCCC2)C(=O)N(C)[C@H](C(=O)N2CCCCC2)CC(=O)N1C [Compound 1862] ([NMeL][Gly(cPr)][Sar][Sar][NMeCha][Sar][hPhe(3-Cl-4-CF3)]P[Ac5c][NMeChg][NMeD]-Piperidide; lactam N-11) : pIC50 value = 8.70

* * *

# Target Entity: Kras and SOS1 (biotin-tagged human Kras loaded with GDP, His-tagged human SOS1) (Homo sapiens, UniProt P01116, G12D)
# Construct: made in house; host or cells: E. coli (stated for Kras only)
# Test Details: Protein-protein interaction inhibition between Kras and SOS1 (KrasGl2D-SOS PPI) using AlphaScreen
# Type: binding
# Condition Details: AlphaScreen; biotin-tagged human Kras loaded with GDP, His-tagged human SOS1; read-out: KRAS G12D-SOS PPI IC50
Positions of bridges follow the written chain, without caps; N, C: chain ends. Non-standard residues stand in square brackets, D forms with d. Residues, ends and D or L forms follow the SMILES beside them. *: point of attachment. hPhe(3-Cl-4-CF3) = N[C@@H](CCc1ccc(C(F)(F)F)c(Cl)c1)C(=O)O; NMePhe(4-Cl) = CN[C@@H](Cc1ccc(Cl)cc1)C(=O)O; Phe(3-OMe) = COc1cccc(C[C@H](N)C(=O)O)c1; NMeCha = CN[C@@H](CC1CCCCC1)C(=O)O; NMeChg = CN[C@H](C(=O)O)C1CCCCC1; NMeD = CN[C@@H](CC(=O)O)C(=O)O; NMeL = CN[C@@H](CC(C)C)C(=O)O; d(β3hA) = C[C@@H](N)CC(=O)O; NMeAib = CNC(C)(C)C(=O)O; Nle = CCCC[C@H](N)C(=O)O; Pyrrolidide = C1CCN(*)C1; Ac5c = NC1(C(=O)O)CCCC1; Sar = CNCC(=O)O
What pIC50 was measured for each of the following?
Scale: pIC50 equals -log10([C]), with [C] in mol/L.

// CCCC[C@@H]1NC(=O)[C@H](Cc2cccc(OC)c2)NC(=O)CN(C)C(=O)[C@H](Cc2ccc(Cl)cc2)N(C)C(=O)CN(C)C(=O)CN(C)C(=O)[C@H]([C@@H](C)CC)NC(=O)[C@H](CC(C)C)N(C)C(=O)C[C@@H](C(=O)N2CCCC2)N(C)C(=O)[C@H](CC(C)C)NC(=O)C(C)(C)N(C)C1=O [Compound 1412] ([NMeL]I[Sar][Sar][NMePhe(4-Cl)][Sar][Phe(3-OMe)][Nle][NMeAib]L[NMeD]-Pyrrolidide; lactam N-11) : pIC50 value = 6.51

// CC[C@H](C)[C@@H]1NC(=O)[C@H](CC(C)C)N(C)C(=O)C[C@@H](C)NC(=O)[C@H](C2CCCCC2)N(C)C(=O)C2(CCCC2)NC(=O)[C@@H]2CCCN2C(=O)[C@H](CCc2ccc(C(F)(F)F)c(Cl)c2)NC(=O)CN(C)C(=O)[C@H](CC2CCCCC2)N(C)C(=O)CN(C)C(=O)CN(C)C1=O [Compound 593] (cyclo([Ac5c][NMeChg][d(β3hA)][NMeL]I[Sar][Sar][NMeCha][Sar][hPhe(3-Cl-4-CF3)]P)) : pIC50 value = 7.47
